Species: Homo sapiens
test.summary: To identify inhibition of the IFN signalling (Jak-Stat) pathway via expression of an eGFP reporter gene under the control of an IFN-stimulated response element (ISRE) containing MxA promoter.
Assay type: functional
Parameters: scale not given: direction of the effect not stated beside the values
details: 30 µM
property: Percent Effect (%)
Your answer is read as %, so omit the unit and give the number.

compound	output.unit	Percent Effect
O=C(NCC(F)(F)F)C1=NOC2(CCCNC2)C1 (stereo not drawn)	%	-6.57
O=C1[C@H]2CN(Cc3ccoc3)C[C@H]2CN1Cc1ccncc1	%	-1.81
O=C1NC2(CCNCC2)CC1c1cccnc1 (stereo not drawn)	%	13.1
COCCN1C[C@H]2[C@@H](C1)N(C(=O)COc1ccccc1)CC[C@H]2OC	%	-1.44

Sample "O=C(COc1ccccc1)N1C[C@@H](O)[C@H](N2CCCC2)C1" — what was its Percent Effect?
1.48

Sample "CC(C)=CCN1C[C@H]2CC[C@@H]1CN(C(=O)c1c[nH]c(=O)c(Cl)c1)C2" — what was its Percent Effect?
7.03
